- systemName: uterine OT receptors (Rattus norvegicus, UniProt P70536)
- Construct: from tissue; host or cells: uterus of DES-treated rats, crude membranes
- Sequence (P70536 1-388): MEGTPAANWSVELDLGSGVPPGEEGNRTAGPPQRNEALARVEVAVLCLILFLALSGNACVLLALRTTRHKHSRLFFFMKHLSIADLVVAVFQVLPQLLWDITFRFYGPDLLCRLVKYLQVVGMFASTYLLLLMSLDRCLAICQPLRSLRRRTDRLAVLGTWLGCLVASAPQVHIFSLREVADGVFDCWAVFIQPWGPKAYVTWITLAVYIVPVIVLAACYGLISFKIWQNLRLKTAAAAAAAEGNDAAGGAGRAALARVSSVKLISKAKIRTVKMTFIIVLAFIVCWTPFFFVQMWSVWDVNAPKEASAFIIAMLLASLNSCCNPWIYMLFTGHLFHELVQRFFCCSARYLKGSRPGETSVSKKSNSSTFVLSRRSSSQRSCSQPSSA
- methodSummary: [3H]OT radioligand binding to uterine OT receptors, crude membrane preparation
- condition: uteri of DES-treated rats; 1 nM [3H]OT; 60 min, 22° C.; inhibits specific binding by 50%; read-out: Receptor Binding Results IC50 (nM) [3H]OT
*1 amine or outer side, *2 acyl side, *3 side chain or, on linkers, in order; H or OH if unused. Where a SMILES comes first, the peptide text is derived from it. [ ]: non-standard residue; d: D form. dPiz(1,6-dehydro) = O=C(O)[C@H]1CCC=NN1; X9 = O=C([C@@H]1C=CC=NN1[*:1])[*:2]; dNMeF = CN[C@H](Cc1ccccc1)C(=O)O
measureName: IC50 (nM)

I. CC[C@H](C)[C@@H]1NC(=S)[C@@H](Cc2ccccc2)NC(=S)[C@@H]2CCCN2C(=O)[C@@H](Cc2ccccc2)N(C)C(=O)[C@@H]2CCC=NN2C(=O)[C@H]2CCC=NN2C1=O
II. CC[C@H](C)[C@@H]1NC(=O)[C@@H](Cc2ccccc2)NC(=O)[C@@H]2CCCN2C(=O)[C@@H](Cc2ccccc2)N(C)C(=O)[C@@H]2C=CC=NN2C(=O)[C@H]2CCC=NN2C1=O [Example 8] (cyclo(I[dPiz(1,6-dehydro)][X9][dNMeF]P[dF]))
Pick one, I or II : lowest reported IC50. Bench note: the answer is the label of the chosen record.
I
(I: 4.9 nM, II: 20 nM)
